Data credit: paper PMC8369186

Molecular target: MDM2 (Homo sapiens)
Test: MDM2 binding assay (fluorescence polarization)
Assay Endpoint: Ki (µM)
Express your answer in µM, writing the number without its unit.

Consider the following illustrative entries.
O=c1nc(SCc2nc3ccccc3n2Cc2ccccc2)[nH]c2ccccc12 [Compound 3] :: 104
CCc1nnc(NC(=O)CSc2nnc(COc3ccccc3)n2-c2ccc(C)cc2)s1 [Compound 7] :: 98.3

Form: item CC(C)N(C(=O)Cn1c(COc2ccc3ccccc3c2)nc2ccccc21)c1ccccc1 [Compound 4] ; test system MDM2 (Homo sapiens); Ki: 99.5

The compound O=S(=O)(Nc1nc2ccccc2nc1Nc1cccc(O)c1)c1ccc(Cl)cc1 [Compound 5] on MDM2 (Homo sapiens): Ki was 8.5

Note to self: Ki of C=CCn1c(SCC(=O)N2N=C(c3ccco3)CC2c2ccco2)nnc1-c1ccncc1 (stereo not shown) [Compound 2] with MDM2 (Homo sapiens) was 9.5

# value of Ki, MDM2 (Homo sapiens), item O=C(O)CC1c2ccccc2CCN1S(=O)(=O)c1ccccc1 (stereo not shown) [Compound 15] = 23.1

Value sought: Ki, system MDM2 (Homo sapiens), item CCOC(=O)c1cc(C(C)c2ccccc2)sc1NC(=O)c1cccc(COc2ccccc2Cl)c1 (stereo not shown) [Compound 1] . Result: 43.5

Ki value, target or system MDM2 (Homo sapiens), for COc1cccc(OCC(=O)N(Cc2nc(-c3ccccc3)no2)C2CCCCC2)c1 [Compound 10] : 3.2

C=CCn1c(COc2ccccc2)nnc1SC(C)C(=O)NN=Cc1ccccc1F (stereo not shown) [Compound 8] tested on MDM2 (Homo sapiens) gave Ki: 23.4

The compound CCOC(=O)c1nnn(-c2nonc2N)c1CNc1ccccc1 [Compound 14] on MDM2 (Homo sapiens): Ki was 127

---

Target: MDM2 (Homo sapiens, UniProt Q00987)
Sequence (Q00987 whole entry): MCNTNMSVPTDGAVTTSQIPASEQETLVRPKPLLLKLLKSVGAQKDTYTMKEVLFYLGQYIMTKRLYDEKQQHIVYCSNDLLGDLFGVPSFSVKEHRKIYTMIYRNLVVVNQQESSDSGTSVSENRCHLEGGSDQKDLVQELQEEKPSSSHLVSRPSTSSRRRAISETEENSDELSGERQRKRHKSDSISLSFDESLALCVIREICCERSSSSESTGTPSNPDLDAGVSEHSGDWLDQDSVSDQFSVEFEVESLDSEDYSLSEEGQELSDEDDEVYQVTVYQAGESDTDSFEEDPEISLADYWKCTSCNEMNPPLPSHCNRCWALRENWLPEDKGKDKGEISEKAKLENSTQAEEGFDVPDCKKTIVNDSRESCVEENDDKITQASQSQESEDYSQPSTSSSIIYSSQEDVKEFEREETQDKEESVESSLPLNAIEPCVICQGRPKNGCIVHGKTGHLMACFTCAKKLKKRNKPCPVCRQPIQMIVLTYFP
Assay: MDM2 binding assay (fluorescence polarization)
Settings: fluorescence polarization, eight concentrations 0.091–200 μM
Assay Endpoint: Ki (µM)
Your answer is read as µM, so omit the unit and give the number.

Cc1nn(-c2ccccc2)c(O)c1/N=N/c1cccc2ncccc12 tested on MDM2 (Homo sapiens, UniProt Q00987) gave Ki: 64.6

---

compounds and their reported Inhibition (200 μM, %)
Biological target: MDM2 (Homo sapiens)
Test: MDM2 binding assay (fluorescence polarization)
Conditions: 200 μM compound; 200 µM
Your answer should be a plain number; it is taken to be in %.

[N-]=[N+]=CC(=O)C(O)(c1ccccc1)C(Cl)c1ccccc1 (stereo not drawn) :: 18.8
O=C(O)CC1c2ccccc2CCN1S(=O)(=O)c1ccccc1 (stereo not drawn) :: 82.1
CCOC(=O)c1c(-c2ccccc2)oc2ccc(O)c(CN(C)C)c12 :: 47.3
CCOC(=O)c1cc(C(C)c2ccccc2)sc1NC(=O)c1cccc(COc2ccccc2Cl)c1 (stereo not drawn) :: 80.2
C=CCn1c(COc2ccccc2)nnc1SC(C)C(=O)NN=Cc1ccccc1F (stereo not drawn) :: 84.7

Attention now shifts to the item below.
The compound identified as C=CCn1c(SCC(=O)N2N=C(c3ccco3)CC2c2ccco2)nnc1-c1ccncc1 (stereo not drawn) registered its Inhibition (200 μM, %) at 95.8

---

Biological target: MDM2 (Homo sapiens, UniProt Q00987)
Experiment: MDM2 binding assay (fluorescence polarization)
Conditions: 200 μM compound; 200 µM
Assay Endpoint: Inhibition (200 μM, %)
# value in %; strip the unit string

O=C(c1cc2n(n1)C(C(F)(F)F)CC(c1ccc(Br)cc1)N2)N(Cc1ccccc1)c1ccccc1 (stereo not drawn) [Compound 9] :: 37.6
COc1ccc(OCc2nnc3sc(COc4ccccc4Cl)nn23)cc1 [Compound 11] :: 32.3

Just so you know, measured Inhibition (200 μM, %) for O=S(=O)(Nc1nc2ccccc2nc1Nc1cccc(O)c1)c1ccc(Cl)cc1 [Compound 5] came out at 90.31

---

inhibition at 200 µM values, listed per item
Biological target: UniProt:Q00987
Experiment: MDM2 binding assay (fluorescence polarization)
Details: read-out: Inhibition (200 μM, %), 200 μM compound

Look over these answered cases.
COC(=O)C1C(CBr)N1N1C(=O)c2ccccc2C1=O (stereo not drawn) :: < 50%
CCOC(=O)c1cc(C(C)c2ccccc2)sc1NC(=O)c1cccc(COc2ccccc2Cl)c1 (stereo not drawn) :: > 80%

Field: next molecule
Data point: C=CCn1c(COc2ccccc2)nnc1SC(C)C(=O)NN=Cc1ccccc1F (stereo not drawn) ; inhibition at 200 µM = > 80%

---

Biological target: UniProtKB Q00987
Test: MDM2 binding assay (fluorescence polarization)
Conditions: 200 μM compound; 200 µM
Assay Endpoint: Inhibition (200 μM, %)
Write it as a number; the unit % goes unstated.

Reference set (2 entries):
COC(=O)C1C(CBr)N1N1C(=O)c2ccccc2C1=O (stereo not drawn) [Compound 13] :: 42.9
CCOC(=O)/C=C1\NC(C)(C)Cc2cc(OC)c(OC)cc21 [Compound 6] :: 46.6

Now for the molecule whose Inhibition (200 μM, %) we want.
Field Inhibition (200 μM, %) (entry COc1cccc(OCC(=O)N(Cc2nc(-c3ccccc3)no2)C2CCCCC2)c1 [Compound 10] ) reads 96.5
